Entries and their Emax (%)*
target_entity: mAChR M4 (UniProt P08173)
Construct: hM1 and hM4 cDNAs were purchased from Missouri S&T cDNA Resource
Sequence (P08173 1-479): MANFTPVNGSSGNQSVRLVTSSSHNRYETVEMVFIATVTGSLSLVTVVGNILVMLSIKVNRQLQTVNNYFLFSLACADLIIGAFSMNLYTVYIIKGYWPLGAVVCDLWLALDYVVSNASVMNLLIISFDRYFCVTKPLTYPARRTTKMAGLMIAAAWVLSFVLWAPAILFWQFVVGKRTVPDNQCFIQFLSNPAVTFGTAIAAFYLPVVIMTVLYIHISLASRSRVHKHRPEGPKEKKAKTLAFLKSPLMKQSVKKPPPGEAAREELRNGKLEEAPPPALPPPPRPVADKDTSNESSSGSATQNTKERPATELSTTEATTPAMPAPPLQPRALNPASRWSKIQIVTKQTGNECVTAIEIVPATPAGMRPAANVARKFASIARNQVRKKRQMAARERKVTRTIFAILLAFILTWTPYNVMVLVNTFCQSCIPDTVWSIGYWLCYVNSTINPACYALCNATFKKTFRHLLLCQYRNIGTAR
protocol_notes: mAChR M4 cell-based functional assay (calcium mobilization, Fluo-4, FDSS)
assay_conditions: % ACh maximum at 30 μM
Field: numeric (%). Do not append units.

[[record]]
compound = "Cc1cc(C)c2c(n1)sc1c(NCc3ccc(F)cc3)n[nH]c12 [Compound 4]"
readout_number = 54


Observed Emax (%)* on mAChR M4 (UniProt P08173), entry Cc1cc(C)c2c(n1)sc1c(NCc3ccc(S(C)(=O)=O)cc3)nn(C)c12 [Compound 75] , equals 73

Observed Emax (%)* on mAChR M4 (UniProt P08173), entry Cc1cc(C)c2c(n1)sc1c(NCC3CC3)nn(C(=O)OC(C)(C)C)c12 [Compound 8] , equals 61

Observed Emax (%)* on mAChR M4 (UniProt P08173), entry Cc1cc(C)c2c(n1)sc1c(NCCC(C)C)n[nH]c12 [Compound 3] , equals 46

Observed Emax (%)* on mAChR M4 (UniProt P08173), entry Cc1nc2sc3c(NCc4ccccc4)n[nH]c3c2c(C)c1Cl [Compound 16] , equals 32

Observed Emax (%)* on mAChR M4 (UniProt P08173), entry Cc1ccnc2sc3c(NCc4ccco4)nn(C)c3c12 [Compound 71] , equals 66

Observed Emax (%)* on mAChR M4 (UniProt P08173), entry Cc1cc(C)c2c(n1)sc1c(NCc3csc(C)n3)nn(C)c12 [Compound 82] , equals 63

Observed Emax (%)* on mAChR M4 (UniProt P08173), entry COCCn1nc(NCc2ccc(OC)cc2)c2sc3nc(C)cc(C)c3c21 [Compound 118] , equals 60

Observed Emax (%)* on mAChR M4 (UniProt P08173), entry Cc1cc(C)c2c(n1)sc1c(NC3CCCCC3)nn(C)c12 [Compound 66] , equals 73

Observed Emax (%)* on mAChR M4 (UniProt P08173), entry Cc1cc(C)c2c(n1)sc1c(NCc3ccc(Cl)o3)nn(C)c12 [Compound 79] , equals 80

Observed Emax (%)* on mAChR M4 (UniProt P08173), entry Cc1cc(C)c2c(n1)sc1c(NCc3sc(C)nc3C)nn(C)c12 [Compound 99] , equals 66

Observed Emax (%)* on mAChR M4 (UniProt P08173), entry Cc1cc(C)c2c(n1)sc1c(NCc3ccoc3)nn(C)c12 [Compound 81] , equals 77

---

target_entity: mAChR M4 (UniProt P08173)
Construct: hM1 and hM4 cDNAs were purchased from Missouri S&T cDNA Resource
Sequence (P08173 1-479): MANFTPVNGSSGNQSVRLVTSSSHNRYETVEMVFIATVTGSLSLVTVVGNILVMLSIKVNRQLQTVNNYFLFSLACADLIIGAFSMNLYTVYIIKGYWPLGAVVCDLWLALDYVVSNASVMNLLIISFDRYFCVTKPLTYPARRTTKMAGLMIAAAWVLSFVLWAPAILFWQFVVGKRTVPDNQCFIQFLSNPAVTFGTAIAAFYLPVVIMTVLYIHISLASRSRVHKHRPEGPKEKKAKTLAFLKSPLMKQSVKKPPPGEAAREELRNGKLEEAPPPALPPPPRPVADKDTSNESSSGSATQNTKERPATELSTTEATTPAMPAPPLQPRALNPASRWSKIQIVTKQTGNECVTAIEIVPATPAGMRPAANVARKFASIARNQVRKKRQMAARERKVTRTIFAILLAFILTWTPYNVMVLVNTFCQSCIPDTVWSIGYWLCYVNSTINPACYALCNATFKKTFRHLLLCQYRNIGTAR
protocol_notes: mAChR M4 cell-based functional assay (calcium mobilization, Fluo-4, FDSS)
assay_conditions: positive allosteric modulator activity, EC20 acetylcholine response, CHO-K1 cells
Entries and their pEC50
Reply: number alone, nothing else.

[[record]]
structure_notation = "Cc1ccc2c(n1)sc1c(NCc3ccncc3)nn(C)c12"
readout_number = 5.96

[[record]]
structure_notation = "Cc1cc(C)c2c(n1)sc1c(NC3CCOCC3)n[nH]c12"
readout_number = 5.14


Continue with the compound presented below.
Summary for this compound, COc1ccc(CNc2nn(C)c3c2sc2nccc(C)c23)cc1 : pEC50 is 5.77

---

target_entity: mAChR M4 (UniProt P08173)
Construct: hM1 and hM4 cDNAs were purchased from Missouri S&T cDNA Resource
protocol_notes: mAChR M4 cell-based functional assay (calcium mobilization, Fluo-4, FDSS)
assay_conditions: % ACh maximum at 30 μM
# if value of Emax (%)* reaches 60%, tag satisfied; if it stays below, tag not satisfied

*Q* hey, is Emax (%)* for this one >= 60%? Cc1nc2sc3c(NCc4ccco4)nn(C)c3c2c(C)c1Cl [Compound 25]
*A* not satisfied

*Q* hey, is Emax (%)* for this one >= 60%? Cc1cc(C)c2c(n1)sc1c(NCc3ccccc3)n[nH]c12 [Compound 5]
*A* not satisfied

*Q* hey, is Emax (%)* for this one >= 60%? Cc1ccc2c(n1)sc1c(NCc3ccco3)n[nH]c12 [Compound 44]
*A* satisfied

*Q* hey, is Emax (%)* for this one >= 60%? Cc1cc(C)c2c(n1)sc1c(NC(=O)C3CC3)n[nH]c12 [Compound 2]
*A* not satisfied

*Q* hey, is Emax (%)* for this one >= 60%? Cc1cc(C)c2c(n1)sc1c(NCC3CCCN3)nn(C)c12 (centres unmarked) [Compound 86]
*A* not satisfied

---

Entries and their EC50
target_entity: mAChR M4 (UniProt P08173)
Construct: hM1 and hM4 cDNAs were purchased from Missouri S&T cDNA Resource
protocol_notes: mAChR M4 cell-based functional assay (calcium mobilization, Fluo-4, FDSS)
assay_conditions: positive allosteric modulator activity: concentration-dependent increase in the EC20 acetylcholine response, CHO-K1 cells; >10 μM estimated for low potency (no plateau)
Field: numeric (nM). Do not append units.

// solved cases for EC50 follow
[[record]]
compound = "Cc1cc(C)c2c(n1)sc1c(NCc3ccco3)n[nH]c12"
target_entity = "mAChR M4 (UniProt P08173)"
readout_number = 1200

[[record]]
compound = "Cc1cc(C)c2c(n1)sc1c(NCc3nccs3)nn(C)c12"
target_entity = "mAChR M4 (UniProt P08173)"
readout_number = 430

[[record]]
compound = "Cc1cc(C)c2c(n1)sc1c(NC3CCCC3)nn(C)c12"
target_entity = "mAChR M4 (UniProt P08173)"
readout_number = 140

[[record]]
compound = "Cc1cc(C)c2c(n1)sc1c(NCc3scnc3C)nn(CCO)c12"
target_entity = "mAChR M4 (UniProt P08173)"
readout_number = 84

[[record]]
compound = "Cc1cc(C)c2c(n1)sc1c(NCc3ccccc3)n[nH]c12"
target_entity = "mAChR M4 (UniProt P08173)"
readout_number = 1070


Observed EC50 on mAChR M4 (UniProt P08173), entry Cc1ccc2c(n1)sc1c(NCc3ccco3)n[nH]c12 , equals 5000

---

target_entity: mAChR M4 (UniProt P08173)
Construct: hM1 and hM4 cDNAs were purchased from Missouri S&T cDNA Resource
protocol_notes: mAChR M4 cell-based functional assay (calcium mobilization, Fluo-4, FDSS)
assay_conditions: positive allosteric modulator activity: concentration-dependent increase in the EC20 acetylcholine response, CHO-K1 cells; >10 μM estimated for low potency (no plateau)
property_label: pEC50
Lab note — pEC50 values are minus log10 of concentrations in M.

// solved cases for pEC50 follow
[[record]]
molecule = "Cc1cc(C)c2c(n1)sc1c(NCc3ccc(S(C)(=O)=O)cc3)nn(C)c12 [Compound 75]"
target_entity = "mAChR M4 (UniProt P08173)"
readout_number = 6.60

[[record]]
molecule = "Cc1cc(C)c2c(n1)sc1c(NC3CNC3)nn(C)c12 [Compound 102]"
target_entity = "mAChR M4 (UniProt P08173)"
readout_number = 5.96


Summary for this molecule, Cc1cc(C)c2c(n1)sc1c(NCc3ccncc3)nn(C)c12 [Compound 42] : pEC50 is 6.82

Summary for this molecule, Cc1cc(C)c2c(n1)sc1c(NCC3CC3)nn(C(=O)OC(C)(C)C)c12 [Compound 8] : pEC50 is 5.62

Summary for this molecule, Cc1cc(C)c2c(n1)sc1c(NCc3ccc(Cl)o3)nn(C)c12 [Compound 79] : pEC50 is 6.51
